Where do these numbers come from? They come from patent US5153180A.

biological target: cellular DNA polymerase β (Bos taurus); construct: purified from calf thymus; experiment: Effect on cellular DNA polymerase β; details: enzyme purified from calf thymus; read-out: ID50 cellular polymerase β
Metric name: IC50 (µM)
Numbers only, in µM.

See these solved cases before continuing.
{"Compound": "Nc1nc2c(ncn2[C@H]2C[C@H](F)[C@@H](COP(=O)(O)OP(=O)(O)OP(=O)(O)O)O2)c(=O)[nH]1", "IC50, µM": 1.8}
{"Compound": "CCc1cn([C@H]2C[C@H](F)[C@@H](COP(=O)(O)OP(=O)(O)OP(=O)(O)O)O2)c(=O)[nH]c1=O", "IC50, µM": 4}
{"Compound": "O=c1ccn([C@H]2C[C@H](F)[C@@H](COP(=O)(O)OP(=O)(O)OP(=O)(O)O)O2)c(=O)[nH]1", "IC50, µM": 3}

Parameter requested: IC50. Apply to each item below.
1. Cc1cn([C@H]2C[C@H](F)[C@@H](COP(=O)(O)OP(=O)(O)OP(=O)(O)O)O2)c(=O)[nH]c1=O
2. O=c1[nH]c(=O)n([C@H]2C[C@H](F)[C@@H](COP(=O)(O)OP(=O)(O)OP(=O)(O)O)O2)cc1F

Response line:
2.2
15

###

Molecular target: thymidine-phosphorylase from human spleen (Homo sapiens, UniProt P19971)
Construct: thymidine-phosphorylase from human spleen; from tissue; host or cells: human spleen
Sequence (P19971 11-482): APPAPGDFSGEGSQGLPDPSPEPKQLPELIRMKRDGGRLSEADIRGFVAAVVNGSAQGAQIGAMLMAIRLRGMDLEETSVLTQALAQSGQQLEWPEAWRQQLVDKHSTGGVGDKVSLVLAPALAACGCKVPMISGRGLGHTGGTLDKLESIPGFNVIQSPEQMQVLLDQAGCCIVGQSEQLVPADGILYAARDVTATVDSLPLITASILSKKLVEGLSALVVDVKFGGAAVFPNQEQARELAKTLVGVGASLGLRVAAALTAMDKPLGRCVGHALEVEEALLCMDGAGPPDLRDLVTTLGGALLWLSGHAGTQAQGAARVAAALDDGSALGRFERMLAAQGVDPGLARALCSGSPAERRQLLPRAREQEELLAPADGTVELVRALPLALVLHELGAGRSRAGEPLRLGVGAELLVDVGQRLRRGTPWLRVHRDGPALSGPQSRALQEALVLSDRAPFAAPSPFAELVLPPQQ
Assay: Phosphorolytic cleavage by thymidine-phosphorylase
Type: in vitro ADME
Details: 1 mM, within 3 hours, read-out: extent of cleavage by thymidine-phosphorylase
From the text: Therefore FTdR, FddBrUrd and FddFUrd were investigated for their ability to be cleaved by thymidine-phosphorylase from human spleen.
Can you tell me metabolised at 3 h, 1000 µM for the items I'm about to list?

Parameter requested: metabolised at 3 h, 1000 µM. Apply to each item below.
1. O=c1[nH]c(=O)n([C@H]2C[C@H](F)[C@@H](CO)O2)cc1F
2. O=c1[nH]c(=O)n([C@H]2C[C@H](F)[C@@H](CO)O2)cc1Br

Response line:
1: 3 to 8%; 2: 3 to 8%

###

test: in vitro; details: human, mt-4 cells
Metric name: CC50 at 144 h (µM)
Answers are plain numbers, in µM.

See these solved cases before continuing.
{"Compound": "Nc1ccn([C@H]2C[C@H](F)[C@@H](CO)O2)c(=O)n1 [FddCyt, 2'-3'-dideoxy-3'-fluorocytidine]", "Units of measure": "µM", "CC50 at 144 h": 62}
{"Compound": "O=c1[nH]c(=O)n([C@H]2C[C@H](F)[C@@H](CO)O2)cc1Br [FddBrUrd, 2'-3'-dideoxy-3'-fluoro-5-bromouridine]", "Units of measure": "µM", "CC50 at 144 h": 190}
{"Compound": "Nc1nc(N)c2ncn([C@H]3C[C@H](F)[C@@H](CO)O3)c2n1 [FddDAPR]", "Units of measure": "µM", "CC50 at 144 h": 480}

Parameter requested: CC50 at 144 h. Apply to each item below.
1. Nc1nc2c(ncn2[C@H]2C[C@H](F)[C@@H](CO)O2)c(=O)[nH]1 [FddGuo, 2'-3'-dideoxy-3'-fluoroguanosine]
2. Cc1cn([C@H]2C[C@H](F)[C@@H](CO)O2)c(=O)nc1N [FddMCyt, 2'-3'-dideoxy-3'-fluoromethylcytidine]
3. O=c1ccn([C@H]2C[C@H](F)[C@@H](CO)O2)c(=O)[nH]1 [FddUrd, 2'-3'-dideoxy-3'-fluorouridine]

Response line:
250
125
75

Parameter requested: CC50 at 144 h. Apply to each item below.
1. Cc1cn([C@H]2C[C@H](F)[C@@H](CO)O2)c(=O)[nH]c1=O [FTdR, 2',3'-dideoxy-3'-fluorothymidine]
2. Nc1ncnc2c1ncn2[C@H]1C[C@H](F)[C@@H](CO)O1 [FddAdo, 2'-3'-dideoxy-3'-fluoroadenosine]

Response line:
[1.1, 75]
